Origin of the recorded values: patent US4080467A

# assay-info: Acute oral toxicity to male mice (LD50)
# test-conditions: mouse, in vivo
value-kind: LD50 (mg/kg)
Form entry: value (mg/kg) — number only.

Entry under review: `CC(C)OC(=O)C(C(=O)OC(C)C)=C1SCCS1` . Reported LD50?
1350

----------
Parameter: Concentration of Ethyl alcohol in Plasma. Scope: all listed entries.
# assay-info: Effect on concentration of ethyl alcohol in the blood
# Type: in vivo, mice
# test-conditions: 250 mg/kg oral 6 h before ethyl alcohol 1,000 mg/kg; 5 min
Number only, in ppm; omit the unit.

compound: CC(C)OC(=O)C(C(=O)OC(C)C)=C1SCCS1
value-kind: Concentration of Ethyl alcohol in Plasma
unit-name: ppm
numeric-value: 727

Quick one: Concentration of Ethyl alcohol in Plasma for CC(C)OC(=O)C(C(=O)OC(C)C)=C1SCC[S+]1[O-] (stereo not shown) ?
720

Also `CCOC(=O)C(C(=O)SCC)=C1SCCS1` ?
690

Would you kindly repeat that for CCOC(=O)C(C(=O)OCC)=C1SCCS1 [Compound 2, Diethyl 1,3-dithiolan-2-ylidene malonate] ?
712

----------
# assay-info: Effect on concentration of ethyl alcohol in the blood
# Assay type: in vivo, mice
# test-conditions: 250 mg/kg oral 6 h before ethyl alcohol 1,000 mg/kg; 30 min
value-kind: Concentration of Ethyl alcohol in Plasma (ppm)
Numbers only here, please. The scale is ppm.

compound: CCOC(=O)C(C(=O)SCC)=C1SCCS1
Concentration of Ethyl alcohol in Plasma [ppm]: 432
--
compound: CCOC(=O)C(C(=O)OCC)=C1SCCS1 [Compound 2, Diethyl 1,3-dithiolan-2-ylidene malonate]
Concentration of Ethyl alcohol in Plasma [ppm]: 422
--
compound: CC(C)OC(=O)C(C(=O)OC(C)C)=C1SCC[S+]1[O-] (stereo not shown)
Concentration of Ethyl alcohol in Plasma [ppm]: 343

Using the record for `CC(C)OC(=O)C(C(=O)OC(C)C)=C1SCCS1` , report its Concentration of Ethyl alcohol in Plasma.
430

----------
# assay-info: in vivo
# test-conditions: mouse, po
value-kind: LD50 (mg/kg)
Quick reminder: number only, in mg/kg, skip the unit.

compound: CCOC(=O)C(C(=O)OCC)=C1SCCS1 [Compound 2, Diethyl 1,3-dithiolan-2-ylidene malonate]
value-kind: LD50
numeric-value: 1110

Pending compound:
Returns the measured LD50 for the input compound. Input: `CCOC(=O)C(C(=O)OC(C)C)=C1SCCS1`
2230

----------
# System: fatty liver (carbon tetrachloride)
# assay-info: Therapeutic effect on fatty liver (carbon tetrachloride model)
# Assay type: in vivo, male rat (35 week-old, SD strain)
# test-conditions: 250 mg/kg oral everyday for 10 days
Each entry below carries its recorded Total lipid.
// note: answer is a bare numeric in mg/g-liver

compound: CC(C)OC(=O)C(C(=O)OC(C)C)=C1SCCS1 [Compound 4]
unit-name: mg/g-liver
Total lipid: 72.3

# get_value(readout='Total lipid', item= CC(C)COC(=O)C(C(=O)OCC(C)C)=C1SCC[S+]1[O-] (stereo not shown) [Compound 32] )
77.2

How about CSCC[C@H](N)C(=O)O [Methionine, methionine, reference compound] ?
168.6

Would you kindly repeat that for CCOC(=O)C(C(=O)OC(C)C)=C1SCCS1 [Compound 21] ?
70.2

----------
# Test system: bile flow and biliary salt
# assay-info: Cholagogic action: bile flow and excretion of biliary salt
# Assay type: in vivo, male rat (4 week-aged, SD-JCL strain)
# test-conditions: 200 mg/kg oral; 4 hours after treatment; before treatment = 100
value-kind: bile flow
Just the number, please, no unit after it.

Example entries and their recorded answers appear below.
compound: COC(=O)C(C(=O)OCC(C)C)=C1SCCS1
measured-target: bile flow and biliary salt
numeric-value: 113
//
compound: CC(C)OC(=O)C(C(=O)OC(C)C)=C1SCCS1
measured-target: bile flow and biliary salt
numeric-value: 112
//
compound: CCOC(=O)C(C(=O)OCC)=C1SCCS1 [Compound 2, Diethyl 1,3-dithiolan-2-ylidene malonate]
measured-target: bile flow and biliary salt
numeric-value: 108

Quick one: bile flow for COc1ccc(-c2cc(=S)ss2)cc1 [Anethol trithion, anethol trithion, reference compound] ?
95
